target.of.assay: human mAChR M1 (Homo sapiens)
Sequence (P11229 whole entry): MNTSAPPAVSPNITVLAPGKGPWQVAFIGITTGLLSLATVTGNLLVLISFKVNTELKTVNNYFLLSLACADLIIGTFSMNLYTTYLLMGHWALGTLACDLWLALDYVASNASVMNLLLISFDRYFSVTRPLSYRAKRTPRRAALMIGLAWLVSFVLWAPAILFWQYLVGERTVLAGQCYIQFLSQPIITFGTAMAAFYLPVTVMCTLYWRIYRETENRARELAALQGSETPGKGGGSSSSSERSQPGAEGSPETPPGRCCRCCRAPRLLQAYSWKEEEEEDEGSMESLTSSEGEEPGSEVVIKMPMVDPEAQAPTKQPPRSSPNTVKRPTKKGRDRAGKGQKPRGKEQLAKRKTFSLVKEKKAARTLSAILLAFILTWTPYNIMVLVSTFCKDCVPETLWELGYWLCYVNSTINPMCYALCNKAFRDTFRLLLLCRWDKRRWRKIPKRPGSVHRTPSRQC
protocol.summary: mAChR M1 cell-based functional assay: calcium mobilization, positive allosteric modulator mode (increase in EC20 acetylcholine response)
assay.context: Table 2; human M1; read-out: Human M1 EC50
recorded.metric: EC50 (µM)
Write the number in µM without appending the unit.

O=C(NC1CCOCC1)c1ccc(Cc2cc(C(=O)NC3CCOCC3)nc3ccsc23)cc1 ... 0.368
Cn1ccc(-c2ccc(Cc3cc(C(=O)N[C@H]4CCOC[C@@H]4O)nc4ccn(C)c34)cc2)n1 ... 0.00643
Cn1ccc(-c2ccc(Cc3cc(C(=O)N[C@@H]4CC[C@H]4O)nc4ccsc34)cn2)n1 ... 0.222

--- query ---
Problem: Give its EC50 value. Item: CC1CC(NC(=O)c2cc(Cc3ccc(-c4ccn(C)n4)nc3)c3sccc3n2)CC(C)O1 (stereo not shown)
Result: 0.412
